The values you see were collected from PubChem BioAssay AID1996.

Recorded solubility kinetic, one value per entry.
# CONDITION_LABEL: buffer; pH 7.4; 200.0 µM

INSERT INTO measurements (molecule, result) VALUES
  ('Cc1cc(C)n2nc(SCC(=O)N3CCCC(C)C3)nc2n1 (stereo not drawn)', '> 47.9 µg/mL');

Recorded solubility kinetic for `COc1cc(NC(c2ccccc2)c2ccccc2)cc(OC)c1OC` , please?
> 52.4 µg/mL

Recorded solubility kinetic for `COc1cc(OC)cc(N2C(=O)CSCC2=O)c1` , please?
> 40.1 µg/mL

Recorded solubility kinetic for `CCCn1c(SCC(=O)Nc2ccc(F)c(Cl)c2)nc(O)cc1=O` , please?
> 55.8 µg/mL

Recorded solubility kinetic for `CC1CCN(C(=O)NC(=O)c2ccccc2)CC1` , please?
> 36.9 µg/mL

Recorded solubility kinetic for `CCn1ccc(C(=O)NCc2ccc3c(c2)OCO3)n1` , please?
> 41 µg/mL

Recorded solubility kinetic for `N#Cc1cc([N+](=O)[O-])ccc1NC(=O)COC(=O)c1cnccn1` , please?
> 49.1 µg/mL

Recorded solubility kinetic for `O=C(N/N=C/c1ccccc1O)C1CCCC1` , please?
> 34.8 µg/mL
